Entries and their z-score values follow.
protocolSummary: E. coli acrAB mutant growth effects, primary screen, E. coli filamentation inducers, strain DRC39, OD650, 48 h (AID 1179);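 further: screen aims at cell division blockers that make cells filament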
experimentalConditions: E. coli DRC39 delta-acrAB growth, higher = more signal, called active from +8 up or from −8 down
valueKind: z-score

CC(=O)c1ccc(C(O)C2C=CC3C(=O)NC(=O)C3N2Nc2ccc(Cl)cc2Cl)cc1 (configuration not stated)
-1.48
COCCOC(=O)N1C(=O)[C@@]2(c3cc(C#CCCO)ccc31)[C@H](c1ccc(O)cc1)N1[C@H](c3ccccc3)[C@H](c3ccccc3)OC(=O)[C@H]1[C@@H]2C(=O)N1CCc2cc(OC)c(OC)cc2C1
0.821
CN(C)CCCNC(=O)[C@@]1(Cc2ccccc2I)c2ccccc2C(=O)N(Cc2ccccc2)[C@H]1c1ccc(CO)cc1
0.252
CC(C)CNC(=O)[C@@H]1c2ccccc2C(=O)N(Cc2ccccc2Cl)[C@H]1c1ccc(CO)cc1
0.303
COCCOC(=O)N1C(=O)[C@@]2(c3cc(C#CCC(C(=O)OC)C(=O)OC)ccc31)[C@H](C(=O)N1CCCCCCC1)[C@H]1C(=O)O[C@H](c3ccccc3)[C@H](c3ccccc3)N1[C@@H]2c1ccccc1OCCO
-1.29
O=C1C2C=CC(C(O)c3cccs3)N(Nc3ccccc3)C2C(=O)N1c1ccccc1 (configuration not stated)
-0.952
COCCOC(=O)N1C(=O)[C@@]2(c3cc(C#CCC(C(=O)OC)C(=O)OC)ccc31)[C@H](C(N)=O)[C@H]1C(=O)O[C@H](c3ccccc3)[C@H](c3ccccc3)N1[C@@H]2c1ccc(OCCO)cc1
0.108
COCC1=C([C@H](O)CCc2ccccc2)[C@H](CO)n2c(=O)n(-c3ccccc3)c(=O)n2C1
1.32
COc1ccc(CC[C@H](O)c2cccc(OCC(=O)OC(C)(C)C)c2)cc1
0.573
COCCOC(=O)N1C(=O)[C@@]2(c3cc(C#Cc4ccc(OC)cc4)ccc31)[C@H](C(=O)Nc1nc3ccccc3s1)[C@H]1C(=O)O[C@H](c3ccccc3)[C@H](c3ccccc3)N1[C@@H]2c1ccccc1OCCO
0.376
CCCC[C@@H](O)C1=C(COC)Cn2c(=O)n(-c3ccccc3)c(=O)n2[C@H]1CO
1.06
COc1ccccc1CN1C(=O)c2ccccc2[C@@H](C(=O)NCCCN(C)C)[C@@H]1c1ccc(CO)cc1
1.37
CC[C@H](C)C(=O)O[C@H]1CC[C@]2(C)C3=C(CCC2C1(C)C)[C@]1(C)CC[C@H]([C@H](C)CCCC(C)C)[C@@]1(C)CC3 (some centres not stated)
1.47
CC(C)C[C@@H]1NC(=O)[C@@H]2C[C@H](C(=O)O)[C@H](c3ccc(O)cc3)N2C1=O
1.94
C=C(C(=O)CC[C@@H](OC(C)=O)c1cccc(OCCO)c1)C(C)C
-1.06
CCOC(=O)C1=CC[C@@H](c2ccccc2)N(S(=O)(=O)C[Si](C)(C)C)[C@H]1c1ccccc1
-1.59
COC(=O)[C@@]1(Cc2ccc(F)cc2)[C@H]2c3cc(C(=O)N(C)C)n(CCn4cc([N+](=O)[O-])nc4C)c3C[C@H]2CN1C(=O)c1ccccc1
-0.566
